- assay.procedure: Bidirectional transport assay across parent MDCK II cell monolayer
- Type: in vitro ADME, canine
- stated.conditions: dog, MDCK, pH 7.4, 10 μM, Papp B to A / Papp A to B, Table 3 experiment; read-out: Flux ratio (MDCK II) (efflux ratio, ER)
parameter.measured: efflux ratio at 120 min, 10 μM

[ask] Could you share which efflux ratio at 120 min, 10 μM value was measured for CC(C)=CCc1cc(/C=C/C(=O)O)ccc1O ?
[reply] 0.8

---

- assay.procedure: Bidirectional transport assay across parent MDCK II cell monolayer
- Type: in vitro ADME, canine
- stated.conditions: dog, pH 7.4; 10 μM, 120 min, parent cells of the BCRP experiment (Table 3), mean ± SE, n = 2
- Protocol: The Madin‐Darby canine kidney (MDCK II) cell line and MDCK II cells overexpressing multidrug resistance 1 (MDR1) or breast cancer resistance protein (BCRP) were purchased from the Netherlands Cancer Institute (Amsterdam, Netherlands) and SOLVO Biotechnology (Szeged, Hungary), respectively. […] The in vitro samples were analyzed using HPLC (LC‐20A, Shimadzu, Kyoto, Japan) with a reversed‐phase column (Inertsil ODS‐3, 2.1 × 33 mm, ID. 3 μm, GL Sciences, Tokyo, Japan) held at 40°C. […]
parameter.measured: Papp B→A at 120 min, 10 μM (×10⁻⁶ cm/s)
The answer is to be given in ×10⁻⁶ cm/s; state only the numeric part.

[ask] Could you share which Papp B→A at 120 min, 10 μM value was measured for CC(C)=CCc1cc(/C=C/C(=O)O)ccc1O ?
[reply] 8.9

---

- assay.procedure: Bidirectional transport assay across parent MDCK II cell monolayer
- Type: in vitro ADME, canine
- stated.conditions: dog, pH 7.4; 10 μM, 120 min, parent cells of the BCRP experiment (Table 3), mean ± SE, n = 2
parameter.measured: Papp A→B at 120 min, 10 μM
Put your answer as a value accompanied by its unit after it.

[ask] Could you share which Papp A→B at 120 min, 10 μM value was measured for CC(C)=CCc1cc(/C=C/C(=O)O)ccc1O ?
[reply] 11.6 ×10⁻⁶ cm/s
